- Test Target: T1, biotinylated B Lymphocyte Stimulator, soluble form (human, UniProt Q9Y275 134-285, biotinylated with NHS-biotin, molar ratio 20:1 biotin:protein)
- T1 construct: also called bio-B Lymphocyte Stimulator; free B Lymphocyte Stimulator
- Assay Summary: phage scFv, receptor binding inhibition on IM9 cells
Measurement Name: binding result

1. I031G10 (scFv) scFv: QVQLVQSGAEVKKPGSSVKVSCRVSGGSFTDDSINWLRQAPGQGLEWVGGTIPLANRANYAQKFRDRVTITADELTATVFLELTSLRSDDTALYYCARSSPPKWYDALTGDSSYHSAMDVWGRGTLVTVSSGGGGSGGGGSGGGGSAQSVVTQPPSVSAAPGQKVTISCSGSTSNIGRNYVSWYQQLPGTATKLLIYDNNKRPSGIPDRFSGSKSGTSATLGITGLQTGDEADYYCGTWDSSLRIYVFGTGTKVTVLG : binds
2. I021B05 (scFv) scFv: QVQQSGADVKKPGGSLRLSCAASGFTFSSYSMNWVRQAPGKGLEWVSSISSSSSYIYYADSVKGRFTISRDNAKNSLYLQMNSLRAEDTAVYYCAREGGNYDILTGYYIGNGAFDIWGRGTMVTVSSGGGGSGGGGSGGGGSQSVLTQPASVSGSPGQSITISCTGTSSDVGGYNYVSWYQQHPGKAPKLMIYEGSKRPSGVSNRFSGSKSGNTASLTISGLQAEDEADYYCSSYTTRSTRVFGGGTKLTVLG : binds
3. I061H01 (scFv, also called 1061H01) scFv: QVQLVQSGGGLVKPGGSLRLSCAASGFTFSNAWMSWVRQAPGKGLQWVGRIKSKTDGGTTDYAAPVKGRFTISRDDSKNTLYLQMNSLKTEDTAVYYCTTFNPTYDILTGYYIGGYFQHWGQGTMVTVSSGGGGSGGGGSGGGGSQSVLTQPASVSGSPGQSITISCTGTSSDVGGYNYVSWYQQHPGKAPKLMIYEGSKRPSGVSNRFSGSKSGNTASLTISGLQAEDEADYYCSSYTTRSTRVFGGGTQLTVLG : binds
